Molecular target: MLKL (Homo sapiens)
Assay: MLKL degradation assay in HepG2 cell line (western blot)
Assay type: cell-based
Set-up: endogenous in cells; host or cells: HepG2 or HaCaT
Conditions: compound 10 μM; cell line not given
Description: MLKL degradation ability was evaluated in the following method. […] For protein preparation after incubation, cells were washed with 1×TBST, and 60 μL of RIPA lysis buffer containing Halt™ Protease and Phosphatase Inhibitor Cocktail was dispensed into each well. […] For protein quantification, after dispensing sample and BCA (0-4 mg/ml) in a 96 well plate, 100 μL of BCA was dispensed and reacted in a 37° C. incubator for 30 minutes. […]
property: Degradation assay (Degradation %) 10 μM

Before answering, review these 3 worked examples.
| compound | Degradation assay (Degradation %) 10 μM |
| --- | --- |
| Nc1ncc(-c2cnn(C3CCN(CCCCCCNC(=O)CNc4ccc5c(c4)C(=O)N(C4CCC(=O)NC4=O)C5=O)CC3)c2)nc1C(=O)O[C@@H](C(=O)Nc1ccc(F)cc1)c1ccccc1 (some centres unmarked) | 50.03 |
| Nc1ncc(-c2cnn([C@@H]3CCN(CC4CCN(C(=O)COc5cccc6c5C(=O)N(C5CCC(=O)NC5=O)C6=O)CC4)C3)c2)nc1C(=O)OC(C(=O)Nc1ccc(F)cc1)c1ccccc1 (some centres unmarked) | 65.94 |
| COc1ccc(C(=O)NCC2CCC(CN3CCC(n4cc(-c5cnc(N)c(C(=O)O[C@@H](C(=O)Nc6ccc(F)cc6)c6ccccc6)n5)cn4)CC3)CC2)cc1N1CCC(=O)NC1=O (some centres unmarked) | 57.10 |

[P] Nc1ncc(-c2cnn(C3CCN(CCc4cn(C5CCN(C(=O)COc6ccc7c(c6)C(=O)N(C6CCC(=O)NC6=O)C7=O)CC5)nn4)CC3)c2)nc1C(=O)O[C@@H](C(=O)Nc1ccc(F)cc1)c1ccccc1 (some centres unmarked)
[Q] Nc1ncc(-c2cnn(C3CCN(C[C@H]4CC[C@H](CNC(=O)COc5ccc6c(c5)C(=O)N(C5CCC(=O)NC5=O)C6=O)CC4)CC3)c2)nc1C(=O)O[C@@H](C(=O)Nc1ccc(F)cc1)c1ccccc1 (some centres unmarked)
Of P and Q , which one carries the higher reported Degradation assay (Degradation %) 10 μM? Reply with the label of the item you choose. Q
(Q: 81.91%, P: 50.39%)

* * *

Molecular target: MLKL (Homo sapiens, UniProt Q8NB16)
Sequence (Q8NB16 1-471): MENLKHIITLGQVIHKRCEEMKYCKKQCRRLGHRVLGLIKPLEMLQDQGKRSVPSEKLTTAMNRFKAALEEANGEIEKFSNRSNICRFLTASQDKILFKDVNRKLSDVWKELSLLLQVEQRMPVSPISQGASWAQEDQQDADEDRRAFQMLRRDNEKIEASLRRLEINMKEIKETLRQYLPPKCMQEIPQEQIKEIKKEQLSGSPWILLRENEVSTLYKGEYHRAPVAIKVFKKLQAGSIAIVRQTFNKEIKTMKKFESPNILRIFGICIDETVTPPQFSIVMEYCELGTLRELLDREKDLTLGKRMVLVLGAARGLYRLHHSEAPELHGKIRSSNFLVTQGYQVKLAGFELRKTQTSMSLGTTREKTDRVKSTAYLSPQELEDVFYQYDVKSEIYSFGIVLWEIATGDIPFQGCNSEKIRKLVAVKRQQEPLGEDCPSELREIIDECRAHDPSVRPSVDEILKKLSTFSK
Assay: MLKL degradation assay in HepG2 cell line (western blot)
Format: cell-based
Set-up: endogenous in cells; host or cells: HepG2 or HaCaT
Conditions: compound 10 μM; cell line not given
property: Degradation assay (Degradation %) 10 μM

| molecule | experimental_result |
| --- | --- |
| Nc1ncc(-c2ccc(N3CCN(CCOCCOCCNC(=O)C4CCN(c5cccc6c5C(=O)N(C5CCC(=O)NC5=O)C6=O)CC4)CC3)nc2)nc1C(=O)OC(C(=O)Nc1ccc(F)cc1)c1ccccc1 (centres unmarked) | 26.63 |
| Nc1ncc(-c2cnn(C3CCN(CCCCCCCCCCNC(=O)C4CN(c5ccc6nnn(C7CCC(=O)NC7=O)c(=O)c6c5)C4)CC3)c2)nc1C(=O)O[C@@H](C(=O)Nc1ccc(F)cc1)c1ccccc1 (some centres unmarked) | 84.5 |

[A] Nc1ncc(-c2cnn(C3CCN(C(=O)CCC4CCN(C(=O)C5CCN(c6cccc7nnn(C8CCC(=O)NC8=O)c(=O)c67)CC5)CC4)CC3)c2)nc1C(=O)O[C@@H](C(=O)Nc1ccc(F)cc1)c1ccccc1 (some centres unmarked)
[B] Nc1ncc(-c2cn(C3CCN(CC4CCN(c5ccc6c(c5)C(=O)N(C5CCC(=O)NC5=O)C6=O)CC4)CC3)nn2)nc1C(=O)OC(C(=O)Nc1ccc(F)cc1)c1ccccc1 (centres unmarked)
Task for the reader: decide whether A or B has the larger Degradation assay (Degradation %) 10 μM. Your choice should be expressed through its label. A

* * *

Target: MLKL (Homo sapiens, UniProt Q8NB16)
Assay: MLKL degradation assay in HepG2 cell line (western blot)
Type: cell-based
Parameters: endogenous in cells; host or cells: HepG2 or HaCaT
Details: compound 10 μM; cell line not given
property: Degradation assay (Degradation %) 10 μM

Reference set, count: 6
| compound | tgt | Degradation assay (Degradation %) 10 μM |
| --- | --- | --- |
| Nc1ncc(-c2cnn(C3CCN(C(=O)CC4CCN(C(=O)C5CCN(c6ccc7nnn(C8CCC(=O)NC8=O)c(=O)c7c6)CC5)CC4)CC3)c2)nc1C(=O)O[C@@H](C(=O)Nc1ccc(F)cc1)c1ccccc1 (stereo partly shown) | MLKL (Homo sapiens, UniProt Q8NB16) | 79.77 |
| Nc1ncc(-c2cnn(C3CCN(CC4CCN(C(=O)CCc5cccc6c5CN(C5CCC(=O)NC5=O)C6=O)CC4)CC3)c2)nc1C(=O)O[C@@H](C(=O)Nc1ccc(F)cc1)c1ccccc1 (stereo partly shown) | MLKL (Homo sapiens, UniProt Q8NB16) | 58.63 |
| Nc1ncc(-c2cnn(C3CCN(CCCN4CCN(C(=O)COc5ccc6c(c5)C(=O)N(C5CCC(=O)NC5=O)C6=O)CC4)CC3)c2)nc1C(=O)O[C@@H](C(=O)Nc1ccc(F)cc1)c1ccccc1 (stereo partly shown) | MLKL (Homo sapiens, UniProt Q8NB16) | 86.73 |
| Nc1ncc(-c2cnn(C3CCN(C(=O)CCC4CCN(C(=O)C5CN(c6ccc7c(c6)C(=O)N(C6CCC(=O)NC6=O)C7=O)C5)CC4)CC3)c2)nc1C(=O)O[C@@H](C(=O)Nc1ccc(F)cc1)c1ccccc1 (stereo partly shown) | MLKL (Homo sapiens, UniProt Q8NB16) | 85.95 |
| Nc1ncc(-c2cnn(C3CCN(CCCN4CCN(C(=O)C5CCN(C6=CC(=O)N(C7CCC(=O)NC7=O)C6=O)CC5)CC4)CC3)c2)nc1C(=O)O[C@@H](C(=O)Nc1ccc(F)cc1)c1ccccc1 (stereo partly shown) | MLKL (Homo sapiens, UniProt Q8NB16) | 81.42 |
| Nc1ncc(-c2cnn(C3CCN(CC4CCN(C(=O)C5CCN(c6ccc7nnn(C8CCC(=O)NC8=O)c(=O)c7c6)CC5)CC4)CC3)c2)nc1C(=O)O[C@@H](C(=O)Nc1ccc(F)cc1)c1ccccc1 (stereo partly shown) | MLKL (Homo sapiens, UniProt Q8NB16) | 77.74 |

[I] Nc1ncc(-c2cnn(C3CCN(CCCN4CC5CN(C(=O)CCc6ccc7c(c6)C(=O)N(C6CCC(=O)NC6=O)C7=O)CC5C4)CC3)c2)nc1C(=O)O[C@@H](C(=O)Nc1ccc(F)cc1)c1ccccc1 (stereo partly shown)
[II] Nc1ncc(-c2cnn(C3CCN(CCOCCOCCNC(=O)C4CN(c5cccc6c5C(=O)N(C5CCC(=O)NC5=O)C6=O)C4)CC3)c2)nc1C(=O)O[C@@H](C(=O)Nc1ccc(F)cc1)c1ccccc1 (stereo partly shown)
Problem: Given the entries I and II , determine which has the lower reported Degradation assay (Degradation %) 10 μM. API: response body contains the label of the selected item. II
(II: 24.21%, I: 73%)

* * *

Target: MLKL (Homo sapiens)
Assay: MLKL degradation assay in HepG2 cell line (western blot)
Format: cell-based
Set-up: endogenous in cells; host or cells: HepG2 or HaCaT
Settings: compound 10 μM; cell line not given
property: Degradation assay (Degradation %) 10 μM

Below: 3 compounds and their reported Degradation assay (Degradation %) 10 μM.
| compound | Degradation assay (Degradation %) 10 μM |
| --- | --- |
| Nc1ncc(-c2cnn(C3CCN(C(=O)CCC4CCN(c5cccc6c5C(=O)N(C5CCC(=O)NC5=O)C6=O)CC4)CC3)c2)nc1C(=O)O[C@@H](C(=O)Nc1ccc(F)cc1)c1ccccc1 (stereo partly shown) [TDH-419] | 64.50 |
| Nc1ncc(-c2cnn([C@H]3CCN(CC4CCN(C(=O)CNc5ccc6c(c5)C(=O)N(C5CCC(=O)NC5=O)C6=O)CC4)C3)c2)nc1C(=O)OC(C(=O)Nc1ccc(F)cc1)c1ccccc1 (stereo partly shown) [TDH-282] | 58.02 |
| Nc1ncc(-c2cnn(C3CCN(CCC4CCN(C(=O)C5CCN(C6=CC(=O)N(C7CCC(=O)NC7=O)C6=O)CC5)CC4)CC3)c2)nc1C(=O)O[C@@H](C(=O)Nc1ccc(F)cc1)c1ccccc1 (stereo partly shown) [TDH-524] | 83.06 |

[A] Nc1ncc(-c2cnn(C3CCN(CCOCCOCCOCCNC(=O)CNc4ccc5nnn(C6CCC(=O)NC6=O)c(=O)c5c4)CC3)c2)nc1C(=O)O[C@@H](C(=O)Nc1ccc(F)cc1)c1ccccc1 (stereo partly shown) [TDH-175]
[B] Nc1ncc(-c2cnn(C3CCN(CC4CCN(C(=O)COc5cccc6c5C(=O)N(C5CCC(=O)NC5=O)C6=O)CC4)CC3)c2)nc1C(=O)N[C@@H](C(=O)Nc1ccc(F)cc1)c1ccccc1 (stereo partly shown) [TDH-186]
[C] Nc1ncc(-c2cnn(C3CCN(C(=O)CC4CCN(C(=O)CCc5ccc6c(c5)C(=O)N(C5CCC(=O)NC5=O)C6=O)CC4)CC3)c2)nc1C(=O)O[C@@H](C(=O)Nc1ccc(F)cc1)c1ccccc1 (stereo partly shown) [TDH-403]
Hey, quick one: sort these by Degradation assay (Degradation %) 10 μM, low to high? Returns: the labels arranged in the requested order. B, A, C
(B: 21.54%, A: 43.56%, C: 83.30%)

[1] Nc1ncc(-c2cnn(C3CCN(CC4CN(C(=O)C5CCN(c6ccc7c(c6)C(=O)N(C6CCC(=O)NC6=O)C7=O)CC5)CCO4)CC3)c2)nc1C(=O)OC(C(=O)Nc1ccc(F)cc1)c1ccccc1 (stereo not shown) [TDH-305]
[2] Nc1ncc(-c2cnn(C3CCN(CCOC4CCN(C(=O)CC5CCN(c6ccc7c(c6)C(=O)N(C6CCC(=O)NC6=O)C7=O)CC5)CC4)CC3)c2)nc1C(=O)O[C@@H](C(=O)Nc1ccc(F)cc1)c1ccccc1 (stereo partly shown) [TDH-372]
Looking at recorded values for Degradation assay (Degradation %) 10 μM, does 1 or 2 come in lower? Answer by quoting the chosen item's label. 1
